I'd be grateful if you could share measured Inhibition (%) of pressor response to angiotensin I, 65 min for these entries.
- Test system: pressor response to angiotensin I
- Protocol Details: Inhibition of pressor response to angiotensin I in rats after oral administration
- Assay type: in vivo, rat (male Wistar)
- Condition Set: 65 min, angiotensin I 300 ng/kg i.v., dose: 3, 45, 49 1.8 mg/kg, 4, 46 1.3, 50 1.4, 76 2.0, 77 1.5
Answers are plain numbers, in %.

In the examples that follow, each entry is paired with its recorded Inhibition (%) of pressor response to angiotensin I, 65 min.
C[C@H](CS)C(=O)N1C(c2ccccc2O)SC[C@H]1C(=O)O (stereo partly shown) = 28.1
O=C(O)[C@@H]1CSC(c2ccccc2O)N1C(=O)CCS (stereo partly shown) = 47.7
COc1ccc(C2SC[C@@H](C(=O)O)N2C(=O)[C@H](C)CS)c(O)c1 (stereo partly shown) = 47.8
O=C(SCCC(=O)N1C(c2ccccc2O)SC[C@H]1C(=O)O)c1ccccc1 (stereo partly shown) = 19.0
C[C@H](CSC(=O)c1ccccc1)C(=O)N1C(C2CCCCC2)SC[C@H]1C(=O)O (stereo partly shown) = 6.3
C[C@H](CS)C(=O)N1C(C2CCCCC2)SC[C@H]1C(=O)O (stereo partly shown) = 27.5

Kindly note the recorded Inhibition (%) of pressor response to angiotensin I, 65 min for COc1ccc(C2SC[C@@H](C(=O)O)N2C(=O)[C@H](C)CSC(=O)c2ccccc2)c(O)c1 (stereo partly shown) , which is 48.9
